Test system: Rec-1 cells (mantle cell lymphoma cell line)
Test: Cell death inducing effect on Rec-1 cells, trypan blue staining
Assay type: cell-based
Settings: Homo sapiens, Rec1; Rec-1 (mantle cell lymphoma), cell viability
Measured pIC50 values are reported for all entries that follow.
Keep in mind that pIC50 stands for -log10 of concentration in molar terms.

CCC(=O)OC[C@H]1O[C@@H](c2c(O)cc3oc4cc(O)c(O)cc4c(=O)c3c2O)[C@H](OC(=O)CC)[C@@H](OC(=O)CC)[C@@H]1OC(=O)CC [Compound M9, 2′,3′,4′,6′-tetra-O-propionylmangiferin]: 6.09
CCCC(=O)OC[C@H]1O[C@@H](c2c(O)cc3oc4cc(O)c(O)cc4c(=O)c3c2OC(=O)CCC)[C@H](OC(=O)CCC)[C@@H](OC(=O)CCC)[C@@H]1OC(=O)CCC [Compound M12, 1,2′,3′,4′,6-penta-O-butyrylmangiferin]: 6.02

Then there is this compound:
Query: Write down pIC50 measured for item O=c1c2cc(O)c(O)cc2oc2cc(O)cc(OCCO)c12 [Compound M18]
Response: 5.04
